Test system: EKVX NSCLC
EXPERIMENTAL_PROTOCOL: NCI-60 one-dose screen, 48 h (100 = growth as untreated, 0 = no growth, -100 = all killed)
CONDITION_PARAMETERS: 10 µM unless noted
About 83,000 compounds went through this panel and 20% of them were active in at least one assay; those are over-represented in the sample as a whole.
Please respond with reported growth for every item in the list.
Please reply with the bare figure in % and do not write the unit itself.

// lookup growth for N=C(N)c1ccc(-c2ccc(-c3ccc(F)cc3)s2)s1 41.4

// lookup growth for COc1ccc(C2CC(c3ccc4c(c3)OCO4)=Nc3c(N)ncnc3N2)cc1 (stereo not given) 119

// lookup growth for O=C(OC[C@@H]1CO1)c1cccc2c(=O)c3ccccc3[nH]c12 -16.8

// lookup growth for O=C(O)C1CN(c2cccc(Cl)c2)N(c2cccc(Cl)c2)C1=O (stereo not given) 96.9

// lookup growth for COc1ccc2cc(Cn3cc[n+](Cc4ccc5ccccc5c4)c3)ccc2c1 50.5

// lookup growth for CC1COCC(C)N1C1=C(Cl)C(=O)c2ccccc2C1=O (stereo not given) 89.9

// lookup growth for CC(/C=C1\SC(=S)N(CC(=O)NC(Cc2c[nH]c3ccccc23)C(=O)O)C1=O)=C\c1ccccc1 (stereo not given) 98.5

// lookup growth for COc1ccc(C2CC(c3ccc(Nc4nc(Nc5ccc(F)cc5)nc(Nc5ccc(F)cc5)n4)cc3)=NN2C(C)=O)cc1 (stereo not given) 94.8

// lookup growth for O=C1c2cc3c(cc2-c2c1c1ccc(Cl)cc1c(=O)n2C[C@H](O)CO)OCO3 4.75

// lookup growth for Cc1ccc(C)n1/C=C/n1c(C)ccc1C 85.9

// lookup growth for N=c1sc(Cc2cc(Cl)ccc2Cl)cn1CC(=O)c1ccccc1 54.4

// lookup growth for Cn1cc(-c2csc(-c3cn(C)c4ccc(Br)cc34)n2)c2cnccc21 -79.1

// lookup growth for COc1cc(Nc2ncccc2NC(=O)c2cn(Cc3cccc(Oc4ccccc4)c3)nn2)cc(OC)c1 75

// lookup growth for COc1ccc(C/C(C)=C(/c2ccc(OCCN3CCCCCC3)cc2)c2ccc(OC(=O)NCc3ccccc3)cc2)cc1 87.6

// lookup growth for COc1ccc(C(O)c2cc3c(N)c(C(=O)Nc4cccc(Cl)c4)sc3nc2C)cc1 (stereo not given) 48.4

// lookup growth for NC(=O)c1c(NC(=O)c2ccc(Cl)cc2)sc2c1CCC(=O)C2 92.7

// lookup growth for CC(C)=CC(=O)N[C@@H]1CC2CCC3C(CC[C@@]4(C)C3CC[C@@H]4C(C)N(C)C)[C@@]2(C)C[C@@H]1O (stereo not given in full) 32.9

// lookup growth for CCOC(=O)C(=Cc1cccc(C#N)c1)C(=O)OCC 82.3

// lookup growth for CN1CCCc2cc(/C=C3/SC(=S)N(CCc4ccc(O)cc4)C3=O)ccc21 93.7

// lookup growth for CCOC(=O)c1c(-c2ccccc2)n2c(=O)cc(C)c3c(O)c(O)cc1c32 86.6

###

Tested on: NCI/ADR-RES ovarian
EXPERIMENTAL_PROTOCOL: NCI-60 one-dose screen, 48 h
CONDITION_PARAMETERS: 10 µM unless noted
The panel holds about 83,000 compounds, 20% with a hit somewhere; the sample as a whole holds those more often. The source made the active and inactive calls. Rule for the calls: active = growth percent below 10; inactive = the rest.
Allowed answers: yes (1) = active, no (0) = inactive

Kindly provide the recorded test outcome for the following compound: C/C(C=O)=C\c1ccc2c(c1)OCO2 no (0)

Kindly provide the recorded test outcome for the following compound: C#Cc1cccc(Oc2ccc(NC(=O)CCl)cc2)c1 no (0)

Kindly provide the recorded test outcome for the following compound: COc1cccc2c(N=NC(=O)c3ccc(S(N)(=O)=O)cc3)c(O)[nH]c12 no (0)

Kindly provide the recorded test outcome for the following compound: CO[C@H](C(=O)[C@@H](O)[C@@H](C)O)[C@@H]1Cc2cc3cc(O[C@H]4C[C@@H](O[C@H]5C[C@@H](O)[C@H](O)C(C)O5)[C@H](O)C(C)O4)c(C)c(O)c3c(O)c2C(=O)[C@H]1O[C@H]1C[C@@H](O[C@H]2C[C@@H](O[C@H]3C[C@@H](OC)[C@H](O)C(C)O3)[C@@H](O)C(C)O2)C(O)(O)C(C)O1 (some centres not stated) no (0)

Kindly provide the recorded test outcome for the following compound: C[C@H]1[C@H](C)CC[C@]2(C(=O)O)CC[C@]3(C)C(=CC[C@@H]4[C@@]5(C)C[C@@H](Cc6cn([C@@H]7O[C@H](CO)[C@@H](O)[C@H](O)[C@H]7O)nn6)[C@H](O)C(C)(C)[C@@H]5CC[C@]43C)[C@H]12 no (0)

Kindly provide the recorded test outcome for the following compound: Fc1ccc2c(c1)c(-c1nc(-c3c[nH]c4ncccc34)cs1)cn2CCCN1CCOCC1 no (0)

Kindly provide the recorded test outcome for the following compound: Cn1cc(-c2nonc2-c2c[nH]c3ccccc23)c2ccccc21 yes (1)

###

System: SK-OV-3 ovarian
EXPERIMENTAL_PROTOCOL: NCI-60 one-dose screen, 48 h (100 = growth as untreated, 0 = no growth, -100 = all killed)
CONDITION_PARAMETERS: 10 µM unless noted
Procedure: Growth inhibition of the SK-OV-3 human tumor cell line is measured as a screen for anti-cancer activity. Cells are grown in 96 well plates and exposed to the test compound for 48 hours. Compounds are tested at a single concentration, which is 10^-5 M for most compounds. The reported endpoint is percent growth (GI% or GIPRCNT), where numbers from 0 - 100% represent growth inhibition, and numbers from -100% - 0 represent cell death. For example, a value of 40 represents 60% growth inhibition. […]
About 83,000 compounds went through this panel and 20% of them were active in at least one assay; those are over-represented in the sample as a whole.
Answer F if growth is under 60%, and T if it is 60% or more.

Evaluate CC1CN=C(c2cccc(-c3ccc(-c4ccccc4)o3)c2)N1 (stereo not given) : growth at minimum 60%? F

Evaluate COc1ccc(C2=NN(C(=O)c3cc(OC)c(OC)c(OC)c3)C(c3ccc(N(C)C)cc3)C2)cc1 (stereo not given) : growth at minimum 60%? F

Evaluate CCOC(=O)c1c(NC(=O)CSc2n[nH]c3nc4ccccc4n23)sc(CC)c1C : growth at minimum 60%? T

Evaluate COC(=O)c1c2c(n3ccc(C)cc13)C(=O)c1ccccc1C2=O : growth at minimum 60%? T

###

Tested on: MALME-3M melanoma
EXPERIMENTAL_PROTOCOL: NCI-60 one-dose screen, 48 h
CONDITION_PARAMETERS: 10 µM unless noted
About 83,000 compounds went through this panel and 20% of them were active in at least one assay; those are over-represented in the sample as a whole. The source made the active and inactive calls. The calls were made as follows: active = growth percent below 10; inactive = the rest.
Allowed answers: active, inactive

Kindly provide the recorded test outcome for the following compound: COc1ccc(C2CC(c3ccc(Nc4nc(Nc5ccc(F)cc5)nc(Nc5ccc(F)cc5)n4)cc3)=NN2C(C)=O)cc1 (stereo not drawn) inactive

Kindly provide the recorded test outcome for the following compound: COc1ccc(NC(=O)c2cccc(C3CCc4c(cc(OC)c(OC)c4OC)O3)c2)cc1 (stereo not drawn) inactive

Kindly provide the recorded test outcome for the following compound: CCCCCCCCn1ccc2cc(NC(=O)Cn3cc(CN4CCN(CC)CC4)nn3)ccc21 active

Kindly provide the recorded test outcome for the following compound: CC1(C)CC[C@]2(C(=O)O)CC[C@]3(C)C(=CC[C@@H]4[C@@]5(C)C[C@@H](Cc6cn([C@@H]7O[C@H](CO)[C@@H](O)[C@H](O)[C@H]7O)nn6)[C@H](O)C(C)(C)[C@@H]5CC[C@]43C)[C@@H]2C1 inactive

Kindly provide the recorded test outcome for the following compound: CCCCN1C(=O)/C(=c2\sc3n(c2=O)NC2C(N=3)N(CC)C(=O)N2CC)c2ccccc21 (stereo not drawn) inactive

Kindly provide the recorded test outcome for the following compound: O=C(CSc1nnc2sc(Nc3cccc(Cl)c3)nn12)c1ccc(F)cc1 inactive

Kindly provide the recorded test outcome for the following compound: CCN1C(=O)N(CC)C2C1NN=c1s/c(=C\c3ccccc3Br)c(=O)n12 (stereo not drawn) inactive

Kindly provide the recorded test outcome for the following compound: N#Cc1c(-c2ccccc2)cc(-c2ccccc2)n(CCCC(=O)NO)c1=O inactive

###

Test system: SR leukemia
EXPERIMENTAL_PROTOCOL: NCI-60 one-dose screen, 48 h
CONDITION_PARAMETERS: 10 µM unless noted
This is part of a sample that, as a whole, favours compounds with a hit. Of some 83,000 tested, about 20% had one in any assay. The source made the active and inactive calls. How the source made its calls: active means growth percent below 10; inactive means the rest.
Allowed answers: yes (1) = active, no (0) = inactive

Kindly provide the recorded test outcome for the following molecule: Cc1cscc(C)c1=S no (0)

Kindly provide the recorded test outcome for the following molecule: COc1cc(C(=O)/C=C/c2ccc(N3CCN(C)CC3)cc2)cc(OC)c1OC no (0)

Kindly provide the recorded test outcome for the following molecule: CCN1C(=O)N(CC)C2C1NN=C1SCC(=O)N12 (configuration not stated) no (0)

Kindly provide the recorded test outcome for the following molecule: O=C(/C=C/c1cccc(Cl)c1)c1cccc(OCCCCOc2cccc(C(=O)/C=C/c3cccc(Cl)c3)c2)c1 no (0)

Kindly provide the recorded test outcome for the following molecule: COc1ccc(C(c2cc(OC)c(OC)c(OC)c2)N2CCCC2)cc1 (configuration not stated) no (0)

Kindly provide the recorded test outcome for the following molecule: CCOC(=O)c1cn2ncnc(Oc3ccc(NC(=O)NC4CC4)c(F)c3)c2c1C no (0)

Kindly provide the recorded test outcome for the following molecule: Cc1cc(N2CCCCC2)nc(N2CCN(CC(=O)Nc3ccc4c(ccn4Cc4ccccc4)c3)CC2)n1 no (0)

Kindly provide the recorded test outcome for the following molecule: N=C(N)c1ccc(-c2ccc(-c3ccc(F)cc3)s2)s1 yes (1)

Kindly provide the recorded test outcome for the following molecule: CC(=O)Nc1c(Cl)cc(Cl)c2c1Cc1cc([N+](=O)[O-])ccc1-2 no (0)

Kindly provide the recorded test outcome for the following molecule: COc1ccccc1NC(=O)c1ccc(/C=C/C(=O)c2nccn2C)cc1 yes (1)

Kindly provide the recorded test outcome for the following molecule: Cc1ccc(/C=C2\CN(C(=O)C(Cl)Cl)C/C(=C\c3ccc(C)cc3)C2=O)cc1 yes (1)

Kindly provide the recorded test outcome for the following molecule: COc1cccc(/C=C2\COc3ccc(O)cc3C2=O)c1 yes (1)

Kindly provide the recorded test outcome for the following molecule: c1ccc(CNc2ccc3nc(CCC4CCCCC4)[nH]c3c2)cc1 no (0)

Kindly provide the recorded test outcome for the following molecule: O=C1NC(=C(Cl)Cl)/C(=N/S(=O)(=O)N2CCCCC2)N1 yes (1)

Kindly provide the recorded test outcome for the following molecule: COc1cc(-c2nc(NC(C)=O)sc2-c2ccnc(NCCNS(=O)(=O)c3ccccc3)n2)ccc1Cl no (0)

Kindly provide the recorded test outcome for the following molecule: CN1C(=O)N(C)C2C1NC(=S)N2/N=C/C=C/c1ccccc1[N+](=O)[O-] (configuration not stated) no (0)

Kindly provide the recorded test outcome for the following molecule: O=C1NC(=O)c2c1c1c3ccccc3[nH]c1c1oc3ccc(F)cc3c21 no (0)

Kindly provide the recorded test outcome for the following molecule: Cc1c2ccccc2nc2c1ccc1cccnc12 no (0)

Kindly provide the recorded test outcome for the following molecule: COC(=O)c1c2c(n3ccc(C)cc13)C(=O)c1ccccc1C2=O no (0)

Kindly provide the recorded test outcome for the following molecule: COc1ccc(C(O)c2cc3c(N)c(C(=O)Nc4cccc(Cl)c4)sc3nc2C)cc1 (configuration not stated) no (0)

Kindly provide the recorded test outcome for the following molecule: COCCCOc1cc(C[C@@H](C[C@H](N)[C@@H](O)C[C@H](C(=O)NCC(C)(C)C(N)=O)C(C)C)C(C)C)ccc1OC no (0)

Kindly provide the recorded test outcome for the following molecule: CCNCc1ccc(O)c2ncccc12 no (0)
